Recorded values, source patent US20250304640A1.

Reported EC-50, HEK-Blue IL-10 reporter cells values for a set of binders
- ASSAYED_SYSTEM: T1, IL10RA (UniProt Q13651 22-578, limits assumed)
- T1 sequence (looked up): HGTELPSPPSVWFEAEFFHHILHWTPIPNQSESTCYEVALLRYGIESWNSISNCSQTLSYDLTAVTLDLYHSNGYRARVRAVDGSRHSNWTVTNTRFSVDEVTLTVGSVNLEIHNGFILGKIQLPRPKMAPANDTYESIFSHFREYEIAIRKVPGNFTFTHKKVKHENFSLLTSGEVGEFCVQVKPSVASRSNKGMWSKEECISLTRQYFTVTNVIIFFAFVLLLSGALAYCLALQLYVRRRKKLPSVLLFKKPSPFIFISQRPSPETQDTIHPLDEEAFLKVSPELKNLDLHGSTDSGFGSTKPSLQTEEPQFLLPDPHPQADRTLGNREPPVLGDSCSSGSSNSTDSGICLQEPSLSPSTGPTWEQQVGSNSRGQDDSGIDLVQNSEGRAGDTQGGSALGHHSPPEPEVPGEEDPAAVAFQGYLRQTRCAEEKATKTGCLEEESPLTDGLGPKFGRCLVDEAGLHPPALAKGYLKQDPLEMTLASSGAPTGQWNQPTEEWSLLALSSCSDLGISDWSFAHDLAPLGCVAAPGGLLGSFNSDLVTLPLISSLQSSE
- ASSAY_DETAILS: cell-based or functional assay
The answer should be written as a number, with no unit following it.

A selection of reference data follows.
Prompt: Tell me its EC-50, HEK-Blue IL-10 reporter cells given ORK10-003-HiBit D44N (ligand) MTQSENSCTHFPGNLPNMLRDLRDAFSRVKTFFQMKDQLDNLLLKESLLEDFKGYLGCQALSEMIQFYLEEVMPQAENQDPDIKAHVNSLGENLKTLRLRLRRCHRFLPCENKSKAVEQVKNAFNKLQEKGIYKAMSEFDIFINYIEAYLYKTITPEFANMLRDLRDAFSRVKTFFQMKDQLNNLLLKESLLEDFKGYLGCQALSEMIQFYLEEVMPQAENQDPDIKAHVNSLGENLKTLRLRLRRCHRFLPCENKSKAVEQVKNAFNKLQEKGIYKAMSEFDIFINYIEAYMTMGGVSGWRLFKKIS as the entry.
Response: 4.37e-10

Prompt: Tell us which EC-50, HEK-Blue IL-10 reporter cells value is on record for ORK10-003-HiBit E50A (ligand) MTQSENSCTHFPGNLPNMLRDLRDAFSRVKTFFQMKDQLDNLLLKESLLEDFKGYLGCQALSEMIQFYLEEVMPQAENQDPDIKAHVNSLGENLKTLRLRLRRCHRFLPCENKSKAVEQVKNAFNKLQEKGIYKAMSEFDIFINYIEAYLYKTITPEFANMLRDLRDAFSRVKTFFQMKDQLDNLLLKASLLEDFKGYLGCQALSEMIQFYLEEVMPQAENQDPDIKAHVNSLGENLKTLRLRLRRCHRFLPCENKSKAVEQVKNAFNKLQEKGIYKAMSEFDIFINYIEAYMTMGGVSGWRLFKKIS
Response: 5.43e-11

# next binder below
Prompt: // fetch EC-50, HEK-Blue IL-10 reporter cells given entry ORK10-003-HiBit D44A (ligand) MTQSENSCTHFPGNLPNMLRDLRDAFSRVKTFFQMKDQLDNLLLKESLLEDFKGYLGCQALSEMIQFYLEEVMPQAENQDPDIKAHVNSLGENLKTLRLRLRRCHRFLPCENKSKAVEQVKNAFNKLQEKGIYKAMSEFDIFINYIEAYLYKTITPEFANMLRDLRDAFSRVKTFFQMKDQLANLLLKESLLEDFKGYLGCQALSEMIQFYLEEVMPQAENQDPDIKAHVNSLGENLKTLRLRLRRCHRFLPCENKSKAVEQVKNAFNKLQEKGIYKAMSEFDIFINYIEAYMTMGGVSGWRLFKKIS
Response: 2.01e-09
